Tested on: L1210 leukemia ip in BDF1 mice, survival T/C
Method Summary: NCI In Vivo Anticancer Drug Screen. Data for tumor model L1210 Leukemia (intraperitoneal) in B6D2F1 (BDF1) mice
Conditions: endpoint: mean survival time; dose: 400.0 mg/kg/injection; schedule: Q04DX003 (ip); vehicle: Klucel (hydroxypropylcellulose) (HPC); higher = longer survival
Toxic doses and inconclusive results are not listed.
Property Name: T/C

* O=C(OCc1ccccc1)C(=O)OCc1ccccc1 | 100 % of control
* COC(=O)c1ccccc1N=Nc1ccc(O)c(C(C)C)c1 | 98 % of control
* O=C(Nc1ccccc1C(=O)N/N=C/c1c(O)ccc2ccccc12)c1ccccc1Cl | 96 % of control
* CCCCOP(=O)(NC12CC3CC(CC(C3)C1)C2)OCCCC | 96 % of control
* O=C(NCCBr)Nc1cccc2c1Cc1ccccc1-2 | 97 % of control
* CC(CCc1cccc2ccccc12)C(=O)O (stereo not drawn) | 105 % of control
* CC(C)=CCC(=O)NC(=O)NS(=O)(=O)c1ccc(Cl)cc1 | 94 % of control
* COc1ccc(C(=O)N(C)c2ccccc2)cc1 | 93 % of control
* COP(=O)(OC)/C(=N\NS(=O)(=O)c1ccc(C)cc1)c1ccccc1 | 94 % of control
* CC(O)c1ccc(Cl)c(Cl)c1 (stereo not drawn) | 104 % of control
* Cc1ccc(NC(=O)N2CC2(C)C)cc1NC(=O)N1CC1(C)C | 111 % of control
* CCOc1ccccc1NC(=O)Nc1ccc(Cl)cc1 | 100 % of control
* c1ccc2cc(SCN3CCOCC3)ccc2c1 | 97 % of control
* O=C(NC(=S)Nc1cccc(Cl)c1)c1ccc(Cl)cc1Cl | 108 % of control
* CNC(=O)Nc1ccccc1C(=O)OC | 101 % of control
* O=C(Oc1ccc(Cl)cc1)c1ccccc1 | 92 % of control
* CC1CC(C)CC(NC(=O)NCCCl)C1 (stereo not drawn) | 92 % of control
* COc1cc2ccc(C(C)NCC#N)cc2cc1OC (stereo not drawn) | 106 % of control
* CC(=O)N(C)c1ccc(NC(=O)Nc2ccc(C)cc2[N+](=O)[O-])cc1 | 94 % of control
* O=C(O)C1CCC(CC23CC4CC(CC(C4)C2)C3)CC1 (stereo not drawn) | 101 % of control
* CCCCCN(CCCCC)C(=O)c1ccc([N+](=O)[O-])cc1 | 105 % of control
* Nc1ccc2c(c1)C(=O)c1cc(N)ccc1-2 | 108 % of control
* Cc1nc2c(nc1C)C(=O)C1C3c4ccccc4C(c4ccccc43)C1C2=O (stereo not drawn) | 93 % of control

---

Test system: L1210 leukemia ip in BDF1 mice, survival T/C
Method Summary: NCI In Vivo Anticancer Drug Screen. Data for tumor model L1210 Leukemia (intraperitoneal) in B6D2F1 (BDF1) mice
Conditions: endpoint: mean survival time; dose: 200.0 mg/kg/injection; schedule: Q01DX009 (ip); vehicle: Klucel (hydroxypropylcellulose) (HPC); higher = longer survival
Toxic doses and inconclusive results are not listed.
Property Name: T/C

- CC(=O)Nc1ccc(NC(=O)Nc2cc([N+](=O)[O-])ccc2C)cc1: 93 % of control
- Nc1nc(N)c(CCCCc2ccc([N+](=O)[O-])cc2)c(N)n1: 102 % of control
- COc1cccc(OC)c1OC(=O)Nc1cccc(C(F)(F)F)c1: 98 % of control

---

Tested on: L1210 leukemia ip in BDF1 mice, survival T/C
Method Summary: NCI In Vivo Anticancer Drug Screen. Data for tumor model L1210 Leukemia (intraperitoneal) in B6D2F1 (BDF1) mice
Conditions: endpoint: mean survival time; dose: 75.0 mg/kg/injection; schedule: Q01DX001 (ip); vehicle: saline; higher = longer survival
Method: The antitumor activity of compounds was measured in mice bearing transplantable tumors. Survival or tumor size were measured and the results are expressed as the measurement made in the treated group (T) divided by the measurement made in the vehicle treated control group (C). The tumor model used in this assay is L1210 Leukemia (intraperitoneal) in B6D2F1 (BDF1) mice
Inconclusive results and toxic doses are left out.
In this section we review reported T/C values for a set of molecules.
Property Name: T/C

- Cc1nc(N)sc1N=Nc1ccccc1Br: 103 % of control
- CC(C)(C)OC(=O)CCN1CC1: 109 % of control
- COc1cc2ccnc(-c3onc4cc(OC)c(OC)cc34)c2cc1OC: 101 % of control
- S=C([S-])N1CCOCC1.S=C([S-])N1CCOCC1.[Zn]: 90 % of control

---

Test system: L1210 leukemia ip in BDF1 mice, survival T/C
Method Summary: NCI In Vivo Anticancer Drug Screen. Data for tumor model L1210 Leukemia (intraperitoneal) in B6D2F1 (BDF1) mice
Conditions: endpoint: mean survival time; dose: 100.0 mg/kg/injection; schedule: Q04DX003 (ip); vehicle: Klucel (hydroxypropylcellulose) (HPC); higher = longer survival
Method: The antitumor activity of compounds was measured in mice bearing transplantable tumors. Survival or tumor size were measured and the results are expressed as the measurement made in the treated group (T) divided by the measurement made in the vehicle treated control group (C). The tumor model used in this assay is L1210 Leukemia (intraperitoneal) in B6D2F1 (BDF1) mice
Inconclusive results and toxic doses are left out.
Property Name: T/C

• Cc1nc2ccc(N=Cc3ccc(N(CCCl)CCCl)cc3)cc2[nH]1 = 102 % of control
• CCS(=O)(=O)C(S(C)(=O)=O)S(=O)(=O)C(C)C (configuration not stated) = 92 % of control
• Cc1cc2c(cc1C)=NC(=Nc1nc(O)c(O)[nH]1)N=2 = 98 % of control
• N#CCc1[nH]nc(N)c1C#N = 89 % of control
• O=C1CNc2ccccc2N1 = 103 % of control
• NC(CCCc1ccccc1)C(=O)O (configuration not stated) = 96 % of control
• c1ccc(C2=Nc3ccccc3NC2c2ccccc2)cc1 (configuration not stated) = 89 % of control
• O=C(Cl)c1ccccc1S(=O)(=O)N(CCOc1ccccc1)c1ccccc1 = 96 % of control
• Cc1ccc(C2OC2(C(=O)c2ccccc2)c2ccccc2)cc1 (configuration not stated) = 96 % of control
• O=C(OCCl)c1ccc(Cl)c(Cl)c1 = 101 % of control
• CCCCNC(=O)NC/C(Br)=C/Br = 98 % of control
• CCC(=O)c1ccc(N2CCOCC2)cc1 = 101 % of control
• COc1ccccc1NC(=S)Nc1ccccc1OC = 93 % of control
• CC(O)c1ccc(Cl)c(Cl)c1 (configuration not stated) = 98 % of control
• COc1ccc(NC(=O)NCCN(C)c2ccccc2)cc1 = 98 % of control
• CC(=O)Nc1cccc2ccc([N+](=O)[O-])cc12 = 94 % of control
• S=C(Nc1ccccc1)NC1CCC(CC2CCCCC2)CC1 (configuration not stated) = 108 % of control

---

Tested on: L1210 leukemia ip in BDF1 mice, survival T/C
Method Summary: NCI In Vivo Anticancer Drug Screen. Data for tumor model L1210 Leukemia (intraperitoneal) in B6D2F1 (BDF1) mice
Conditions: endpoint: mean survival time; dose: 100.0 mg/kg/injection; schedule: Q04DX003 (ip); vehicle: saline; higher = longer survival
Inconclusive results and toxic doses are left out.
Property Name: T/C

- ClCc1nc2nc(Cl)c(Cl)nc2[nH]1: 101 % of control
- COC(=O)/C=C(\C)Nc1ccc(-c2ccccc2)cc1: 101 % of control
- NC(=O)C[n+]1cccc(C(N)=O)c1: 97 % of control
- CC(=O)N1CCOCC1: 93 % of control
- O=[N+]([O-])c1cccc2cccc([N+](=O)[O-])c12: 103 % of control
- Cc1ccc(NN)c(Br)c1: 104 % of control
- Nc1nc(N)c2cc(CNc3ccc(Cl)c(C(=O)NC(CC(=O)O)C(=O)O)c3)cnc2n1 (stereo unspecified): 106 % of control
- O=C(O)CSC(CC(=O)O)C(F)(F)C(F)(F)C(F)(F)F (stereo unspecified): 96 % of control
- C/C(=N/O)c1c[n+]([O-])ccn1: 101 % of control
- O=Cc1c[nH]c(=O)[nH]c1=O: 95 % of control
- CC(C)NCC(=O)c1ccc(O)c(O)c1: 103 % of control
- Cc1cccc(C)c1NC(=O)N(CCO)C1CCCCC1: 102 % of control
- COc1cc([N+](=O)[O-])c(O)cc1O: 101 % of control
- CCCSc1ccccn1: 95 % of control
- O=C(OCCOCCOCCOCCOCCOCCOCCOCCOCCOCCOCCOCCOCCOCCOCCOCCOCCOCCOCCOCCOCCOCCOC(=O)N1CC1)N1CC1: 100 % of control
- Cc1c[nH]c(=O)cn1: 94 % of control
